Assay: binders from COS7 lysate, DM2A8 probe, primary screen, torsin A project, cell lysate, small-molecule microarray, fluorescence 635/667 (AID 1065)
Conditions: higher = more signal, COS7 lysate expressing mutant human TOR1A
Please mark 1 (yes) if the recorded composite z-score is equal to or greater than 0.1, and 0 (no) if it falls below.

Qu. Could you verify whether the entry O=C(NN=C1C[C@@H](O)[C@@H](O)[C@@H]2[C@@H]3C(=O)N(Cc4ccc5c(c4)OCO5)C(=O)[C@@H]3CC[C@@H]12)OCc1ccccc1 shows composite z-score of no less than 0.1?
Ans. 0 (no)

Qu. Could you verify whether the entry COC(=O)[C@H](C)NC(=O)CCC1CC(OC(=O)NCc2cccc3ccccc23)CC2(CCCC(COC(=O)NCCCN3CCCC3=O)O2)O1 (stereo partly specified) shows composite z-score of no less than 0.1?
Ans. 0 (no)

Qu. Could you verify whether the entry COC(=O)[C@H](C)NC(=O)CCC1CC(OC(=O)NCc2ccc3c(c2)OCO3)CC2(CCCC(COC(=O)NCCCN3CCCC3=O)O2)O1 (stereo partly specified) shows composite z-score of no less than 0.1?
Ans. 1 (yes)

Qu. Could you verify whether the entry CCN1C(=O)[C@H]2[C@H]3[C@H](O)[C@H](O)CC(=NOC(C)CN4CCCc5nc(C)c(C)cc54)[C@@H]3CC[C@H]2C1=O (stereo partly specified) shows composite z-score of no less than 0.1?
Ans. 1 (yes)

Qu. Could you verify whether the entry COC(=O)CC=C[C@@H](C)[C@@H](C=NOC[C@@H](C)[C@H](OCc1ccccc1)C(C)C)NS(=O)(=O)c1ccc(C)cc1 shows composite z-score of no less than 0.1?
Ans. 1 (yes)

Qu. Could you verify whether the entry CON=C[C@@H](OC)[C@H](C)C=CCC(=O)OC shows composite z-score of no less than 0.1?
Ans. 0 (no)

Qu. Could you verify whether the entry C[C@H]1CC[C@H]2C(=O)OC(COc3ccc(C(C)(C)C)cc3)CN2[C@@H]1c1ccc(Br)cc1 (stereo partly specified) shows composite z-score of no less than 0.1?
Ans. 0 (no)

Qu. Could you verify whether the entry CCOC(=O)NN=C1C[C@@H](O)[C@@H](O)[C@@H]2[C@@H]3C(=O)N(c4ccc(F)cc4F)C(=O)[C@@H]3CC[C@H]12 shows composite z-score of no less than 0.1?
Ans. 1 (yes)

Qu. Could you verify whether the entry CCOC(=O)[C@H](CC(C)C)NC(=O)CCC1CC(OC(=O)NCCc2ccc(F)cc2)CC2(CCCC(COC(=O)NCCOC)O2)O1 (stereo partly specified) shows composite z-score of no less than 0.1?
Ans. 1 (yes)

Qu. Could you verify whether the entry COC(=O)[C@@H]1CC[C@H](C)[C@@H](c2ccc(Br)cc2)N1C(=O)C(F)(F)F shows composite z-score of no less than 0.1?
Ans. 0 (no)

Qu. Could you verify whether the entry CCCCOC(OCCCC)C(O)CSc1ccc2ccccc2c1 (stereo unspecified) shows composite z-score of no less than 0.1?
Ans. 1 (yes)

Qu. Could you verify whether the entry COC(=O)[C@H](C)NC(=O)CCC1CC(OC(=O)NCc2cccc3ccccc23)CC2(CCCC(COC(=O)NCCOc3ccccc3)O2)O1 (stereo partly specified) shows composite z-score of no less than 0.1?
Ans. 1 (yes)

Qu. Could you verify whether the entry C=C(C)C(=O)OC[C@H]1CN2[C@@H](CC[C@@H](C)[C@@H]2c2ccc(Br)cc2)C(=O)O1 shows composite z-score of no less than 0.1?
Ans. 1 (yes)

Qu. Could you verify whether the entry C=CC[C@@H]1C=C[C@H](ON=C(C)CCN2CCCc3nc(C)c(C)cc32)[C@@H](CO)O1 shows composite z-score of no less than 0.1?
Ans. 1 (yes)

Qu. Could you verify whether the entry CC(C)=NOC(C)CN1CCCCc2nc(C)c(C)cc21 (stereo unspecified) shows composite z-score of no less than 0.1?
Ans. 1 (yes)

Qu. Could you verify whether the entry CCOC(=O)[C@H](Cc1ccccc1)NC(=O)CCC1CC(OC(=O)NCc2ccc3c(c2)OCO3)CC2(CCCC(COC(=O)NCCCN3CCCC3=O)O2)O1 (stereo partly specified) shows composite z-score of no less than 0.1?
Ans. 1 (yes)
